# systemName: ALDH2*1/*1 (Homo sapiens)
# Construct: His-tag (N); made in house; host or cells: E. coli BL21 (pTrcHis vector)
# measurementNotes: ALDH2 enzymatic activity, NADH accumulation at 340 nm, acetaldehyde substrate, wild type
# Type: biochemical
# conditions: 5 μM compound; relative to baseline enzymatic activity (100%)

compound | activity at 5 µM (%)
COc1ccc(CNC(=O)c2cc(-c3cscc3CO)ccc2OCC2CC2)cc1F [AC29] | 334
COc1ccc(CNC(=O)c2cc(-c3cnccc3CO)cnc2OCC2CC2)cc1F [AC10] | 238
COc1ccc(CNC(=O)c2cc(-c3cccnc3CO)ccc2OCC2CC2)cc1F [AC7] | 181
COc1ccc(CNC(=O)c2cc(-c3ccsc3CO)cnc2OCC2CC2)cc1F [AC25] | 341
COc1ccc(CNC(=O)c2cc(-c3cscc3CO)cnc2OCC2CC2)cc1F [AC24] | 248
COc1ccc(CNC(=O)c2cc(-c3ccc(F)cc3CO)cnc2OCC2CC2)cc1F [AC4] | 280
COc1ccc(CNC(=O)c2cc(-c3cccc(F)c3CO)cnc2OCC2CC2)cc1F [AC18] | 131
COc1ccc(CNC(=O)c2cc(-c3sccc3CO)cnc2OCC2CC2)cc1F [AC26] | 235
COc1ccc(CNC(=O)c2cc(-c3ncccc3CO)cnc2OCC2CC2)cc1F [AC8] | 223
COc1ccc(CNC(=O)c2cc(-c3ccc(F)cc3CO)ccc2OCC2CC2)cc1F [AC23] | 262
COc1ccc(CNC(=O)c2cc(-c3cccc(F)c3CO)ccc2OCC2CC2)cc1F [AC21] | 209
COc1ccc(CNC(=O)c2cc(-c3sccc3CO)ccc2OCC2CC2)cc1F [AC28] | 252
COc1ccc(CNC(=O)c2cc(-c3ccncc3CO)cnc2OCC2CC2)cc1F [AC12] | 211
COc1ccc(CNC(=O)c2cc(-c3ccccc3CO)cnc2OCC2CC2)cc1F [AC1] | 242
COc1ccc(CNC(=O)c2cc(-c3cc(F)ccc3CO)ccc2OCC2CC2)cc1F [AC17] | 262
COc1ccc(CNC(=O)c2cc(-c3c(CO)ccc[n+]3[O-])ccc2OCC2CC2)cc1F [AC14] | 138
COc1ccc(CNC(=O)c2cc(-c3cccnc3CO)cnc2OCC2CC2)cc1F [AC11] | 135
COc1ccc(CNC(=O)c2cc(-c3c[n+]([O-])ccc3CO)ccc2OCC2CC2)cc1F [AC13] | 168
COc1ccc(CNC(=O)c2cc(-c3c(F)cccc3CO)cnc2OCC2CC2)cc1F [AC19] | 143
